The values you see were collected from ChEMBL document CHEMBL2390879.

- measured target: Amine oxidase [flavin-containing] B (Homo sapiens, UniProt P27338)
- Sequence (P27338 whole entry): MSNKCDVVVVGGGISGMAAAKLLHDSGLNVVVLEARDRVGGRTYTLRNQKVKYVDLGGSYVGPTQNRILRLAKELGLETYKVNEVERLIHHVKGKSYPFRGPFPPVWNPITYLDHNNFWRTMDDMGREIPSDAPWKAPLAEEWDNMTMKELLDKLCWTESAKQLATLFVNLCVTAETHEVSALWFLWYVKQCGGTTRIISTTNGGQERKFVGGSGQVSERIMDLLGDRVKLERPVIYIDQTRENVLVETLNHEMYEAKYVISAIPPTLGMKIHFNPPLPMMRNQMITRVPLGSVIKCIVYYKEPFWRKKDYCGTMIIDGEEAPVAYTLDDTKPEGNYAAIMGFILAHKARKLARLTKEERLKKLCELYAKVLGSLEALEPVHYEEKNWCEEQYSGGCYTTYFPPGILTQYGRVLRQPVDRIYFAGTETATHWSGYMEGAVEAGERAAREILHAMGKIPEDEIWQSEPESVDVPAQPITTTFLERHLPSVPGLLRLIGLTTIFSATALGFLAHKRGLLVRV
- test method notes: Inhibition of human recombinant monoamine oxidase-B assessed as kynuramine conversion to 6-hydroxyquinoline after 20 mins by fluorescence spectrophotometric analysis
The following compounds are listed with their measured log10(IC50) values.
log10 IC50, nM

Take a look at these entries with their results.
>>> print(df.to_string())
                       record_smiles  numeric_value
0    O=C1OCc2ccc(OCCc3ccc(F)cc3)cc21           1.83
1  Cc1ccc(CCOc2ccc3c(c2)C(=O)OC3)cc1           1.91
2      O=C1OCc2ccc(OCCOc3ccccc3)cc21           1.26
3   O=C1OCc2ccc(OCCc3ccc(Cl)cc3)cc21           1.68
4     O=C1OCc2ccc(OCc3ccc(I)cc3)cc21           0.26

Query block: Determine from records and report log10(IC50) for O=C1OCc2ccccc21
Result block: 4.46

Query block: Determine from records and report log10(IC50) for O=C1OCc2ccc(OCCCc3ccccc3)cc21
Result block: 0.79

Query block: Determine from records and report log10(IC50) for O=C1OCc2ccc(OCc3ccc(Br)cc3)cc21
Result block: 0.38

Query block: Determine from records and report log10(IC50) for O=C1OCc2ccc(OCC3CCCCC3)cc21
Result block: 1.08

Query block: Determine from records and report log10(IC50) for O=C1OCc2ccc(OCc3ccc(C(F)(F)F)cc3)cc21
Result block: 0.15
